This collection of values is drawn from ChEMBL document CHEMBL1129479.

Measurement Target: Aromatase (Homo sapiens, UniProt P11511)
pIC50: −log10 of the molar value.
Reported pIC50 values are given for each entry in this list.
Observable: pIC50

- C=CSCC[C@]12CCC(=O)C=C1CCC1C2=CC[C@]2(C)C(=O)CCC12 (some centres undefined): 7.30
- C[C@]12CC=C3C(CCC4=CC(=O)CC[C@@]43CCSCF)C1CCC2=O (some centres undefined): 7.30
- CSCSCC[C@]12CCC(=O)C=C1CCC1C2=CC[C@]2(C)C(=O)CCC12 (some centres undefined): 6.24
- CS[C@]12CCC(=O)C=C1CCC1C2=CC[C@]2(C)C(=O)CCC12 (some centres undefined): 5.13

----------
Measurement Target: Aromatase (Rattus norvegicus, UniProt P22443)
Sequence (P22443 whole entry): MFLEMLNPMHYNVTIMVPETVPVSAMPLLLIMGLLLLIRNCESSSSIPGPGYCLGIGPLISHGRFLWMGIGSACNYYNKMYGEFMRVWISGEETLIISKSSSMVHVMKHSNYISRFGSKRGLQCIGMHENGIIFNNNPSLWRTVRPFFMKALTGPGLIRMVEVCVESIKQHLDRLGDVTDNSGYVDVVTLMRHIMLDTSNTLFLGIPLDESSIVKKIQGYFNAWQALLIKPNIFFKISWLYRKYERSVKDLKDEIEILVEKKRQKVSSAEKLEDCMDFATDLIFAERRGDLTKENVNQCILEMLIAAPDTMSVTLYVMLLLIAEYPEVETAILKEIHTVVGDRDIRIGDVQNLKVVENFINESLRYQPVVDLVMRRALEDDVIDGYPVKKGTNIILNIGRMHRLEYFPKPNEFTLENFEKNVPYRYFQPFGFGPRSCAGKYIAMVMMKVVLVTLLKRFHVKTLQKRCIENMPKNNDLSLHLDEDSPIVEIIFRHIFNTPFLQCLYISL
Test Description: In vivo reduction in serum estradiol in PMSG-primed rats after 2 hr at 5 mg/kg oral dose
Assay type: functional, organism-based
Set-up: dose 5 mg/kg, route oral; scale not given: the % may be the effect or the level left
Observable: Control

- CSSCC[C@]12CCC(=O)C=C1CCC1C2=CC[C@]2(C)C(=O)CCC12 (some centres undefined): 7%
- C[C@]12CC=C3C(CCC4=CC(=O)CC[C@@]43CCSC#N)C1CCC2=O (some centres undefined): 44%
- CSC(C[C@]12CCC(=O)C=C1CCC1C2=CC[C@]2(C)C(=O)CCC12)SC (some centres undefined): 18%
- C#CCSCC[C@]12CCC(=O)C=C1CCC1C2=CC[C@]2(C)C(=O)CCC12 (some centres undefined): 5%
- C[C@]12CC=C3C(CCC4=CC(=O)CC[C@@]43CCSSc3ccc([N+](=O)[O-])cc3[N+](=O)[O-])C1CCC2=O (some centres undefined): 27%
- C[C@]12CC=C3C(CCC4=CC(=O)CC[C@@]43CCSCF)C1CCC2=O (some centres undefined): 31%
- CSCC[C@]12CCC(=O)C=C1CCC1C2=CC[C@]2(C)C(=O)CCC12 (some centres undefined): 51%
- C[C@]12CC=C3C(CCC4=CC(=O)CC[C@@]43CCSSc3ccccc3)C1CCC2=O (some centres undefined): 43%
- CSCC[C@]12CCC(=O)C=C1CCC1C2CC[C@]2(C)C(=O)CCC12 (some centres undefined): 11%
